ASSAYED_TARGET: Phosphatidylinositol 4,5-bisphosphate 3-kinase catalytic subunit beta isoform (Homo sapiens)
PROTOCOL_NOTES: Inhibition of PI3Kbeta (unknown origin)
Kindly supply the reported pIC50 values for the records listed here.
Answers are plain numbers, as −log10 of the molar value.

For each entry beneath this line, provide reported pIC50.
1. Cc1nn2ccc(C3CCOCC3)nc2c1Cc1cccc(C(F)(F)F)c1C
2. Cc1c(Cc2cnn3c(Cl)cc(N4CCOCC4)nc23)cccc1C(F)(F)F
3. CCc1nn2c(O)cc(C3CCOCC3)nc2c1Cc1cccc(Cl)c1Cl
4. COc1cc(N2CCOCC2)nc2c(Cc3cccc(C(F)(F)F)c3C)cnn12
5. Cc1nn2c(O)cc(N3CCOCC3=O)nc2c1Cc1cccc(C(F)(F)F)c1C
6. Cc1nn2c(O)cc(N3CCOC(C)C3)nc2c1Cc1cccc(C(F)(F)F)c1C (stereo not given)
7. Oc1cc(C2CCOCC2)nc2c(Cc3cccc(Cl)c3Cl)c(C(F)(F)F)nn12

6.10
6.50
7.90
6.00
6.50
8.60
8.20

For each entry beneath this line, provide reported pIC50.
1. Cc1c(Cc2c(=O)[nH]n3c(=O)cc(C4CCOCC4)[nH]c23)cccc1C(F)(F)F
2. Cc1c(Cc2cnn3c(O)cc(-c4ccncc4)nc23)cccc1C(F)(F)F

1. 7.20
2. 8.60

----------
ASSAYED_TARGET: Phosphatidylinositol 4,5-bisphosphate 3-kinase catalytic subunit gamma isoform (Homo sapiens, UniProt P48736)
Sequence (P48736 whole entry, canonical isoform): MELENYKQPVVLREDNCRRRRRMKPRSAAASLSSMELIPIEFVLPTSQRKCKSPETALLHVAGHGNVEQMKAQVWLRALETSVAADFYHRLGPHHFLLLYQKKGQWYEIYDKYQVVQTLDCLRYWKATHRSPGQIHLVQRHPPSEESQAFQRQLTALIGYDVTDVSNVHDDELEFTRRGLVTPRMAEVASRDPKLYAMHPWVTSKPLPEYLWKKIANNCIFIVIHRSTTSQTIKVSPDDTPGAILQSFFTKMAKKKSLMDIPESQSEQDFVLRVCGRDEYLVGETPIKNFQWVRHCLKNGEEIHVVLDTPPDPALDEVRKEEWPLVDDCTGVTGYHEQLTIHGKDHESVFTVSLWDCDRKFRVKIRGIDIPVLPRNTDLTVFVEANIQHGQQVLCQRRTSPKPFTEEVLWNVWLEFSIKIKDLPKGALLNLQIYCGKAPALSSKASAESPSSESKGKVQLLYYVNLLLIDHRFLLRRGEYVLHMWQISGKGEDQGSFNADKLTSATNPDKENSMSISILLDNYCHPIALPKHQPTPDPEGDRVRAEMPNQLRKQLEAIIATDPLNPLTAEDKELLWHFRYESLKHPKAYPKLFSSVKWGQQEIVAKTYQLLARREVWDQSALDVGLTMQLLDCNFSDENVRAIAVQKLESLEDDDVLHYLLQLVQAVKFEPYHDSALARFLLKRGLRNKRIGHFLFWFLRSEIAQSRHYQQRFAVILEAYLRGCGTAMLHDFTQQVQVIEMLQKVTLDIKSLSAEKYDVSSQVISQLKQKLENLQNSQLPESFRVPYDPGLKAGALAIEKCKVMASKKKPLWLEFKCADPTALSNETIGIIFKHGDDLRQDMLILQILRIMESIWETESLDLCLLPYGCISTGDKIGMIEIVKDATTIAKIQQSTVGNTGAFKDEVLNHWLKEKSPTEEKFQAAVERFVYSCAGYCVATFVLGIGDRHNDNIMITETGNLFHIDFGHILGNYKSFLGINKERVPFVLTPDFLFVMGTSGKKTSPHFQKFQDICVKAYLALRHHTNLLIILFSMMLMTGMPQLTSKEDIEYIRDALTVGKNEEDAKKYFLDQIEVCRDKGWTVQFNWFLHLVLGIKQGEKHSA
PROTOCOL_NOTES: Inhibition of PI3Kgamma (unknown origin)
MEASUREMENT_NAME: IC50 (nM)
Answers are plain numbers, in nM.

> print(dat)
                                     smiles  assay.value
1  Cc1nn2c(O)cc(N3CCOCC3)nc2c1Cc1cccc2ccccc12          631
2  Oc1cc(N2CCOCC2)nc2c(Cc3cccc(Cl)c3Cl)c(C(F)(F)F)nn12          251

Consider now this further molecule.
May I ask what IC50 has been recorded for Cc1nn2ccc(C3CCOCC3)nc2c1Cc1cccc(C(F)(F)F)c1C ?
2000

----------
ASSAYED_TARGET: Phosphatidylinositol 4,5-bisphosphate 3-kinase catalytic subunit beta isoform (Homo sapiens, UniProt P42338)
Sequence (P42338 whole entry, canonical isoform): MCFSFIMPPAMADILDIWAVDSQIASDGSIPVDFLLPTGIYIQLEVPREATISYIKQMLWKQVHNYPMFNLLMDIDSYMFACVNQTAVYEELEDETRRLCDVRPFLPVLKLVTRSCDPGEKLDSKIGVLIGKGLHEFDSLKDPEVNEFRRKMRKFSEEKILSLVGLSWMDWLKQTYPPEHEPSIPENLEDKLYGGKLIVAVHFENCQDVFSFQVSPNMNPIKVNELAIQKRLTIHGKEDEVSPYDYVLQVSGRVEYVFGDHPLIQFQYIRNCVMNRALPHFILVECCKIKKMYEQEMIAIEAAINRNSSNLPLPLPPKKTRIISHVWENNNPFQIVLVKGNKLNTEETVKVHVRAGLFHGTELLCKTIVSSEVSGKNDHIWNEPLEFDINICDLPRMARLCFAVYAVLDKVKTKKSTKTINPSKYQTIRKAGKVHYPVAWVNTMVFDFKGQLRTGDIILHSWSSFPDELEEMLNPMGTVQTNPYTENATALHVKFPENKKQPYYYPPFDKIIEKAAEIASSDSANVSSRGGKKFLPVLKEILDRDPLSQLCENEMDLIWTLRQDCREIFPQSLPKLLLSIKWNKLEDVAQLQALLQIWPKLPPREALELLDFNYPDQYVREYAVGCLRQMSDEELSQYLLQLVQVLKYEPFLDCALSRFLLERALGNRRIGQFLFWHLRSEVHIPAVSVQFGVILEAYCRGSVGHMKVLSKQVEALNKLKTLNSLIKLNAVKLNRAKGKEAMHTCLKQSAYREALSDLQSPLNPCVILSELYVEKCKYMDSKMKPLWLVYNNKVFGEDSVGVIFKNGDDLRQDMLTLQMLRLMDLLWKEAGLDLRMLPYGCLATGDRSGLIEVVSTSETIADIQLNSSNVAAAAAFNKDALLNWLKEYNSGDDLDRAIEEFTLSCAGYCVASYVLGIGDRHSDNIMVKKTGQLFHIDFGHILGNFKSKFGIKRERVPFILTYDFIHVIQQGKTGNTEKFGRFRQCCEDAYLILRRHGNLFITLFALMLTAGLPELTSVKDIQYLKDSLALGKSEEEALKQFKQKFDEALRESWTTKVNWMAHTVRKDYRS
PROTOCOL_NOTES: Inhibition of PI3Kbeta human in PTEN-null MDA-MB-468 cells assessed as reduction of AKT phosphorylation at Ser 473 in absence of serum
Assay type: cell-based
MEASUREMENT_NAME: pEC50
Answers are plain numbers, as −log10 of the molar value.

For each entry beneath this line, provide reported pEC50.
1. COc1nn2c(O)cc(-c3ccncc3)nc2c1Cc1cccc(Cl)c1Cl
2. Cc1nn2c(O)cc(N3CCOCC3)nc2c1Cc1cccc(C(F)(F)F)c1C
3. Cc1c(Cn2c(C)nc(=O)c3sc(N4CCOCC4)nc32)cccc1C(F)(F)F

1. 6.80
2. 7.50
3. 8.20

For each entry beneath this line, provide reported pEC50.
1. Cc1c(Cc2cnn3c(O)cc(-c4ccncc4)nc23)cccc1C(F)(F)F
2. Cc1c(Cc2cnn3c(O)cc(N4CCOCC4)nc23)cccc1C(F)(F)F

[7.60, 7.20]

----------
ASSAYED_TARGET: Phosphatidylinositol 4,5-bisphosphate 3-kinase catalytic subunit beta isoform (Homo sapiens)
PROTOCOL_NOTES: Inhibition of PI3Kbeta (unknown origin)
MEASUREMENT_NAME: IC50 (nM)
Numbers only, in nM.

Here are 6 molecules together with their reported answers.
> print(dat)
                                     smiles  measurement.name  assay.value
1  Cc1nn2c(O)cc(C3CCOCC3)nc2c1Cc1cccc(C(F)(F)F)c1C              IC50         3.98
2  Cc1nn2c(O)cc(N3CCOCC3)nc2c1Cc1cccc(C(F)(F)F)c1C              IC50        0.398
3  Cc1c(Cn2c(C)nc(=O)c3sc(N4CCOCC4)nc32)cccc1C(F)(F)F              IC50        0.631
4  Oc1cc(-c2ccncc2)nc2c(Cc3cccc(Cl)c3Cl)c(C(F)(F)F)nn12              IC50         2.51
5  Cc1nn2c(NC(N)=O)cc(N3CCOCC3)nc2c1Cc1cccc(C(F)(F)F)c1C              IC50           20
6  Cc1nn2c(N)cc(N3CCOCC3)nc2c1Cc1cccc(C(F)(F)F)c1C              IC50         39.8

For each entry beneath this line, provide reported IC50.
1. COc1nn2c(O)cc(-c3ccncc3)nc2c1Cc1cccc(Cl)c1Cl
2. Nc1nn2c(O)cc(C3CCOCC3)nc2c1Cc1cccc(Cl)c1Cl

1.26
7.94
